# credit: patent US12172975B2

# maps each entry to its IC50
Biological target: His-GST-TVMV-hRIPK1 (1-324) (Homo sapiens (Human), UniProt Q13546)
Sequence (Q13546 1-324): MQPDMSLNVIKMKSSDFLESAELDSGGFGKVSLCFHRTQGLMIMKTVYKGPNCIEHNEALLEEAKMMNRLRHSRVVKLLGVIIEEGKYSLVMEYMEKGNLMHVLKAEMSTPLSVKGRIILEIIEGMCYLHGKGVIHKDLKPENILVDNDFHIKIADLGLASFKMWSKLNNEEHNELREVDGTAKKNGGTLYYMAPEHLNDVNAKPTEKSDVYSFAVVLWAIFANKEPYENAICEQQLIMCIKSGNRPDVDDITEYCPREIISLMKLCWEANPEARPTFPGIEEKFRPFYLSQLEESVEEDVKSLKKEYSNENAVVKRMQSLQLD
Assay: RIPK1 HTRF Binding Assay
Details: read-out: RIPK1 HTRF (IC50); FRET probe displacement, 1 h at rt
Where a name gives a salt, the structure may show the parent alone.
Kindly report the value followed by its unit.

compound	IC50
[2H]C([2H])([2H])Oc1ncc(-c2ccc3c(C(=O)NC)n[nH]c3c2)cc1C(=O)NCCC(=O)OC(C)(C)C	82 nM

Exercise: Name the reported IC50 value associated with the compound [2H]C([2H])([2H])Oc1ncc(-c2ccc3c(C(=O)NC4CC4)n[nH]c3c2)cc1C(=O)NCC(C)(C)C(=O)OC(C)(C)C
Solution: 130 nM

Exercise: Name the reported IC50 value associated with the compound [2H]C([2H])([2H])Oc1ncc(-c2ccc3c(C(=O)NC4CC4)n[nH]c3c2)cc1C(=O)N[C@@H]1CN(C(=O)C2CC(F)(F)C2)C[C@@H]1F
Solution: 100 nM

Exercise: Name the reported IC50 value associated with the compound CNC(=O)c1n[nH]c2cc(-c3cnc(OC)c(C(=O)NC4CCCC(C(=O)N(C)C5CC5)C4)c3)ccc12 (centres unmarked)
Solution: 12 nM

Exercise: Name the reported IC50 value associated with the compound [2H]C([2H])([2H])Oc1ncc(-c2ccc3c(C(=O)NC4CC4)n[nH]c3c2)cc1C(=O)N[C@H](C)c1ccccc1OC(F)(F)F
Solution: 5.5 nM

Exercise: Name the reported IC50 value associated with the compound [2H]C([2H])([2H])Oc1ncc(-c2ccc3c(C(=O)NC([2H])([2H])C([2H])([2H])[2H])n[nH]c3c2)cc1C(=O)N[C@H](c1cc(OC(F)(F)F)ccc1F)C([2H])([2H])[2H]
Solution: 17 nM

Exercise: Name the reported IC50 value associated with the compound COc1ncc(-c2ccc3c(C(=O)NC4CC(=O)N(C)C4)n[nH]c3c2)cc1C(=O)NCc1ccccc1OC(F)(F)F (centres unmarked) [Example 187, TFA]
Solution: 28 nM

Exercise: Name the reported IC50 value associated with the compound COc1ncc(-c2ccc3c(C(=O)NC4CC4)n[nH]c3c2)cc1C(=O)N[C@@H](C)c1cc(OC(F)(F)F)ccc1F
Solution: 220 nM

Exercise: Name the reported IC50 value associated with the compound CNC(=O)c1n[nH]c2cc(-c3cnc(OC)c(C(=O)NCc4ccc(F)c(C(F)(F)F)c4)c3)ccc12
Solution: 40 nM

Exercise: Name the reported IC50 value associated with the compound CNC(=O)c1n[nH]c2cc(-c3cc(C(=O)NCc4cccc(OC(F)(F)F)c4)c(OC)nc3C)ccc12
Solution: 27 nM

Exercise: Name the reported IC50 value associated with the compound CNC(=O)c1n[nH]c2cc(-c3cnc(OC)c(C(=O)NCC4CCCN4C(=O)C(C)(C)C(F)(F)F)c3)ccc12 (centres unmarked)
Solution: 34 nM

Exercise: Name the reported IC50 value associated with the compound [2H]C([2H])([2H])Oc1ncc(-c2ccc3c(C(=O)NCC(C)(C)F)n[nH]c3c2)cc1C(=O)N[C@@H]1CN(C(=O)C2CC(F)(F)C2)C[C@@H]1F
Solution: 260 nM

Exercise: Name the reported IC50 value associated with the compound CNC(=O)c1n[nH]c2cc(-c3cnc(OC)c(C(=O)NCc4cc(F)cc(F)c4OCC4CC4)c3)ccc12
Solution: 2.3 nM

Exercise: Name the reported IC50 value associated with the compound CNC(=O)c1n[nH]c2cc(-c3cnc(C)c(C(=O)NC(C)c4cccc(OC(F)(F)F)c4)c3)ccc12 (single isomer, unassigned) [Example 155]
Solution: 13 nM

Exercise: Name the reported IC50 value associated with the compound [2H]C([2H])([2H])Oc1ncc(-c2ccc3c(C(=O)NC)n[nH]c3c2)cc1C(=O)N[C@H](C)c1cccc(C(F)(F)F)c1
Solution: 57 nM

Exercise: Name the reported IC50 value associated with the compound COc1ncc(-c2ccc3c(C(=O)NC4CCN(C(C)=O)CC4)n[nH]c3c2)cc1C(=O)NCc1ccccc1OC(F)(F)F
Solution: 19 nM

Exercise: Name the reported IC50 value associated with the compound CCNC(=O)c1n[nH]c2cc(-c3cnc(OC)c(C(=O)N[C@H](C)c4cc(C(F)(F)F)ccc4F)c3)ccc12
Solution: 8.7 nM

Exercise: Name the reported IC50 value associated with the compound [2H]C([2H])([2H])NC(=O)c1n[nH]c2cc(-c3cnc(OC)c(C(=O)NCCC(=O)OC(C)(C)C)c3)ccc12
Solution: 32 nM

Exercise: Name the reported IC50 value associated with the compound CNC(=O)c1n[nH]c2cc(-c3cnc(OC)c(C(=O)NCC(O)COc4ccccc4)c3)ccc12 (centres unmarked)
Solution: 8.4 nM

Exercise: Name the reported IC50 value associated with the compound CNC(=O)c1n[nH]c2cc(-c3cnc(OC)c(C(=O)NCc4ncccc4OCC4CCC4)c3)ccc12 [Example 117, TFA]
Solution: 2.6 nM

Exercise: Name the reported IC50 value associated with the compound CNC(=O)c1n[nH]c2cc(-c3cnc(OC)c(C(=O)NCc4c(F)cccc4OC(C)C)c3)ccc12
Solution: 2.3 nM

====

# maps each entry to its pIC50
Molecular target: His-GST-TVMV-hRIPK1 (1-324) (Homo sapiens (Human), UniProt Q13546)
Experiment: RIPK1 HTRF Binding Assay
Details: read-out: RIPK1 HTRF (IC50); FRET probe displacement, 1 h at rt
Structures can show the parent of a compound that is named as a salt.
pIC50 here: minus log base 10 of the concentration, concentration in moles per litre.

# example entries with known answers
molecule	value
CNC(=O)c1n[nH]c2cc(-c3cnc(OC)c(C(=O)NCCCOCC(C)C)c3)ccc12	8.09
CNC(=O)c1n[nH]c2cc(-c3cnc(OC)c(C(=O)NCCCOc4ccc(F)cc4)c3)ccc12	8.64

Exercise: Name the reported pIC50 value associated with the molecule CNC(=O)c1n[nH]c2cc(-c3cc(C(=O)NCC4CCCC4(C)C)c(OC)nc3C)ccc12 (stereo not shown)
Solution: 7.47

Exercise: Name the reported pIC50 value associated with the molecule CNC(=O)c1n[nH]c2cc(-c3cnc(OC)c(C(=O)NCC4(C(=O)OC5CCCC5)CC4)c3)ccc12
Solution: 8.16

Exercise: Name the reported pIC50 value associated with the molecule [2H]C([2H])([2H])NC(=O)c1n[nH]c2cc(-c3cnc(OC)c(C(=O)NCc4ccccc4OC(F)(F)F)c3)ccc12
Solution: 8.54

Exercise: Name the reported pIC50 value associated with the molecule CNC(=O)c1n[nH]c2cc(-c3cnc(OC)c(C(=O)NCc4cccc(OCC5CCC5)c4)c3)ccc12
Solution: 10.40

Exercise: Name the reported pIC50 value associated with the molecule CNC(=O)c1n[nH]c2cc(-c3cnc(OC)c(C(=O)NCc4ccccc4OCC(F)(F)F)c3)ccc12 [Example 75, TFA]
Solution: 8.74

====

Biological target: His-GST-TVMV-hRIPK1 (1-324) (Homo sapiens (Human))
Test: RIPK1 HTRF Binding Assay
Settings: read-out: RIPK1 HTRF (IC50); FRET probe displacement, 1 h at rt
pIC50: −log10 of the molar value.
Please note: 1.0 applies when pIC50 is 8 or greater, and 0.0 applies otherwise.

compound	class-assignment
[2H]C([2H])([2H])Oc1ncc(-c2ccc3c(C(=O)NC)n[nH]c3c2)cc1C(=O)NC([2H])([2H])c1ccccc1OC(F)(F)F	1.0
CCOC(=O)C(C)(C)CNC(=O)c1cc(-c2ccc3c(C(=O)NC)n[nH]c3c2)cnc1OC	0.0
CNC(=O)c1n[nH]c2cc(-c3cnc(OC)c(C(=O)NC4CCCC(C(=O)N5CCOCC5)C4)c3)ccc12 (stereo not shown)	0.0
CNC(=O)c1n[nH]c2cc(-c3cnc(OC)c(C(=O)NCC4(c5ccccc5OC(F)(F)F)CC4)c3)ccc12	0.0

# evaluate next
Exercise: Given COc1ncc(-c2ccc3c(C(=O)NC4CCN(S(C)(=O)=O)CC4)n[nH]c3c2)cc1C(=O)NCc1ccccc1OC(F)(F)F , state whether its pIC50 is at least 8.
Solution: 0.0

====

# maps each entry to its IC50
Target: His-GST-TVMV-hRIPK1 (1-324) (Homo sapiens (Human))
Experiment: RIPK1 HTRF Binding Assay
Settings: read-out: RIPK1 HTRF (IC50); FRET probe displacement, 1 h at rt

# example entries with known answers
compound	IC50
CNC(=O)c1n[nH]c2cc(-c3cnc(OC)c(C(=O)NCCCOC4CCCCC4)c3)ccc12	6.8 nM
CNC(=O)c1n[nH]c2cc(-c3cnc(OC)c(C(=O)NC4CCCC(C(=O)N5CCCC5)C4)c3)ccc12 (stereo not shown)	11 nM

Exercise: Form field: IC50 recorded for [2H]C([2H])([2H])NC(=O)c1n[nH]c2cc(-c3cnc(OC([2H])([2H])[2H])c(C(=O)NC(C)c4cc(F)ccc4C(F)(F)F)c3)ccc12 (stereo not shown) with His-GST-TVMV-hRIPK1 (1-324) (Homo sapiens (Human)) (enter value)
Solution: 15 nM

Exercise: Form field: IC50 recorded for CNC(=O)c1n[nH]c2cc(-c3cnc(OC)c(C(=O)NCc4cc(F)cc(F)c4OC(C)C)c3)ccc12 with His-GST-TVMV-hRIPK1 (1-324) (Homo sapiens (Human)) (enter value)
Solution: 4.2 nM
